The reported numbers originate from patent US20250320281A1.

IC50 (neutralization, TZM-bl pseudovirus assay) listing for selected binders.
target: HIV-1 Env of isolate DU422 (clade C pseudovirus) (HIV-1); assay: cell-based or functional assay
Give the value in µg/mL but do not write µg/mL after it.

See these solved cases before continuing.
1. 1489_I13 (PG16) (TCN-120) (antibody, V domains shown) VH: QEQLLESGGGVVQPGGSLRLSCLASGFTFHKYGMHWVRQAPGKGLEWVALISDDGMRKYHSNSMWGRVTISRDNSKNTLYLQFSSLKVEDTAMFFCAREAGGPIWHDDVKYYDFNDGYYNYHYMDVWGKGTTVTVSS VL: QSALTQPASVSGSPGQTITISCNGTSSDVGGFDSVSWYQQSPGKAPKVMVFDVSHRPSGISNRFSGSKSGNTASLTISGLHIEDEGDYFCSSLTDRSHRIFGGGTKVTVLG	1.87
2. 1456_A12 (PG16) (TCN-117) (antibody, V domains shown) VH: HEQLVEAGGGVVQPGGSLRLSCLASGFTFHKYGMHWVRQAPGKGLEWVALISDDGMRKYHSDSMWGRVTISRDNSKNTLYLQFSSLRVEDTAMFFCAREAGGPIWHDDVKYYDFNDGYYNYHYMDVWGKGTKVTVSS VL: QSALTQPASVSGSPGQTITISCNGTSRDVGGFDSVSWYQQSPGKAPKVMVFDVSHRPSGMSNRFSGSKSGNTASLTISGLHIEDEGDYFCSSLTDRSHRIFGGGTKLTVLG	0.36
3. 1503_H05 (PG16) (TCN-119) (antibody, V domains shown) VH: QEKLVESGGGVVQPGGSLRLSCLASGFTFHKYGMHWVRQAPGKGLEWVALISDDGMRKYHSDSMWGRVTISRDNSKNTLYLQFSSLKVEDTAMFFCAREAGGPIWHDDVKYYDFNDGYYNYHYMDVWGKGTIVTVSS VL: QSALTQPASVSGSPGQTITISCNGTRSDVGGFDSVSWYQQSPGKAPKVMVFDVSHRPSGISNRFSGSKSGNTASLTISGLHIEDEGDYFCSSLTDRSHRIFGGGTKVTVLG	0.71

input: // lookup IC50 (neutralization, TZM-bl pseudovirus assay) for 1469_M23 (PG16) (TCN-118) (antibody, V domains shown) VH: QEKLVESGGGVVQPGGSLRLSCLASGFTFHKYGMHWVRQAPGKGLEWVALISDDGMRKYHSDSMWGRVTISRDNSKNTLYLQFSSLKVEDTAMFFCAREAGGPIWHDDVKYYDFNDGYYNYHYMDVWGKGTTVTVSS VL: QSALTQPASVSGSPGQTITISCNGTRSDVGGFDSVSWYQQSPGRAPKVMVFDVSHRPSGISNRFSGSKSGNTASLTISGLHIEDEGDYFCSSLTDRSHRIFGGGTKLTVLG
output: 0.97
